- ASSAY SUMMARY: in vivo
- Parameters: species or system Beagle Dogs
- RUN PARAMETERS: male, Beagle, dog, po, 22 mg/kg, T1/2 of CH2107 (Molnupiravir)
QUANTITY NAME: half-life (min)
Give just the numeric value; min need not be written.

Value of half-life reported for the molecule CC(C)C(=O)OC[C@H]1O[C@@H](n2ccc(NO)nc2=O)[C@H](O)[C@@H]1O is 12.7

###

- ASSAY SUMMARY: in vitro
- Format: in vitro ADME
- RUN PARAMETERS: dog, microsomes, pH 7.4
For each of the compounds below, state its half-life at 1 µM.
Give just the numeric value; h need not be written.

Value of half-life at 1 µM reported for the compound COC(C)(C)C(=O)ONc1ccn([C@@H]2O[C@H](CO)[C@@H](O)[C@H]2O)c(=O)n1 [EX-53] is 1.46

Value of half-life at 1 µM reported for the compound CC(C)C(=O)OC[C@H]1O[C@@H](n2ccc(NO)nc2=O)[C@H](O)[C@@H]1O [Molnupiravir] is 0.065

Value of half-life at 1 µM reported for the compound CC(C)C(=O)ONc1ccn([C@@H]2O[C@H](CO)[C@@H](O)[C@H]2O)c(=O)n1 [EX-3] is 0.563

Value of half-life at 1 µM reported for the compound O=C(ONc1ccn([C@@H]2O[C@H](CO)[C@@H](O)[C@H]2O)c(=O)n1)C1CC1 [EX-15] is 2.2

Value of half-life at 1 µM reported for the compound CC(=O)ONc1ccn([C@@H]2O[C@H](CO)[C@@H](O)[C@H]2O)c(=O)n1 [EX-2] is 1.27

###

- ASSAY SUMMARY: in vivo
- Parameters: species or system Beagle Dogs
- RUN PARAMETERS: both sexes, beagle, dog, po, 20 mg/kg, AUClast of EX-2/CH2101
- Description: Example 174: Pharmacokinetic Study of EX-2 (CH2101), Molnupiravir (CH2017) and its Metabolite NHC (CH2018) Following a Single PO Administration of EX-2 (CH2101) or Molnupiravir (CH2017) in Male and Female Beagle Dogs Both test compounds were prepared in 1% methyl cellulose (400 cps, SIGMA, SLCF9694) solution in purified water. […]
QUANTITY NAME: AUC(0-t) (ng·h/mL)
Give just the numeric value; ng·h/mL need not be written.

Value of AUC(0-t) reported for the compound CC(=O)ONc1ccn([C@@H]2O[C@H](CO)[C@@H](O)[C@H]2O)c(=O)n1 [EX-2] is 5.43

###

For each of the compounds below, state its half-life at 1 µM.
- ASSAY SUMMARY: in vitro
- Assay type: in vitro ADME
- RUN PARAMETERS: rat, microsomes, pH 7.4
Give just the numeric value; min need not be written.

Value of half-life at 1 µM reported for the compound CC(=O)ONc1ccn([C@@H]2O[C@H](CO)[C@@H](O)[C@H]2O)c(=O)n1 is 288

Value of half-life at 1 µM reported for the compound CC(C)C(=O)ONc1ccn([C@@H]2O[C@H](CO)[C@@H](O)[C@H]2O)c(=O)n1 is 46.6

Value of half-life at 1 µM reported for the compound CC(C)C(=O)OC[C@H]1O[C@@H](n2ccc(NO)nc2=O)[C@H](O)[C@@H]1O is 13.8

Value of half-life at 1 µM reported for the compound COC(C)(C)C(=O)ONc1ccn([C@@H]2O[C@H](CO)[C@@H](O)[C@H]2O)c(=O)n1 is 70.5
